The following molecules are listed with their measured half-life values.
assay: Pharmacokinetics of Compound 40 and benzene sulfonate thereof in ICR mice, PO; conditions: mouse, in vivo, PO 100 mg/kg (based on free base), 40% Hp-β-CD, read-out: T½ (converted)
Number only, in h; omit the unit.

{"columns": ["molecule", "half-life [h]"],
 "data": [
  ["Cn1nnc(-c2ccc(CCNc3nc(N)n4nc(-c5ccco5)nc4n3)cc2)n1 [Compound 40]", 4.27]
]}

Below: the item to evaluate.
Could you share which half-life value was measured for Cn1nnc(-c2ccc(CCNc3nc(N)n4nc(-c5ccco5)nc4n3)cc2)n1.O=S(=O)(O)c1ccccc1 [Benzene sulfonate of Compound 40] ?
2.29

These measurements were taken from patent US20230048888A1.
